B1: Focal adhesion kinase 1 (Gallus gallus (Chicken)), Q00944 (parent)
chain: MAAAYLDPNLNHTPSSSAKTHLGTGMERSPGAMERVLKVFHYFENSSEPTTWASIIRHGDATDVRGIIQKIVDCHKVKNVACYGLRLSHLQSEEVHWLHLDMGVSNVREKFELAHPPEEWKYELRIRYLPKGFLNQFTEDKPTLNFFYQQVKNDYMLEIADQVDQEIALKLGCLEIRRSYGEMRGNALEKKSNYEVLEKDVGLRRFFPKSLLDSVKAKTLRKLIQQTFRQFANLNREESILKFFEILSPVYRFDKECFKCALGSSWIISVELAIGPEEGISYLTDKGANPTHLADFNQVQTIQYSNSEDKDRKGMLQLKIAGAPEPLTVTAPSLTIAENMADLIDGYCRLVNGATQSFIIRPQKEGERALPSIPKLANNEKQGVRSHTVSVSETDDYAEIIDEEDTYTMPSTRDYEIQRERIELGRCIGEGQFGDVHQGIYMSPENPAMAVAIKTCKNCTSDSVREKFLQEALTMRQFDHPHIVKLIGVITENPVWIIMELCTLGELRSFLQVRKFSLDLASLILYAYQLSTALAYLESKRFVHRDIAARNVLVSATDCVKLGDFGLSRYMEDSTYYKASKGKLPIKWMAPESINFRRFTSASDVWMFGVCMWEILMHGVKPFQGVKNNDVIGRIENGERLPMPPNCPPTLYSLMTKCWAYDPSRRPRFTELKAQLSTILEEEKLQQEERMRMESRRQVTVSWDSGGSDEAPPKPSRPGYPSPRSSEGFYPSPQHMVQPNHYQVSGYSGSHGIPAMAGSIYPGQASLLDQTDSWNHRPQEVSAWQPNMEDSGTLDVRGMGQVLPTHLMEERLIRQQQEMEEDQRWLEKEERFLVMKPDVRLSRGSIEREDGGLQGPAGNQHIYQPVGKPDHAAPPKKPPRPGAPHLGSLASLNSPVDSYNEGVKIKPQEISPPPTANLDRSNDKVYENVTGLVKAVIEMSSKIQPAPPEEYVPMVKEVGLALRTLLATVDESLPVLPASTHREIEMAQKLLNSDLAELINKMKLAQQYVMTSLQQEYKKQMLTAAHALAVDAKNLLDVIDQARLKMISQSRPH

Variants of: B1
Conditions: with src_chick SRC
assay.endpoint: effect of a mutation on the interaction

In [3]: df
Out[3]:
   variant_string    recorded_measurement
0     Y397F;K454R  disrupting interaction
1     Y576F;Y577F  decreasing interaction
2           K454R  decreasing interaction
3           Y397F  disrupting interaction

Provenance of the data: IntAct's records for PubMed 10512882
